target: Cysteinyl leukotriene receptor 1 (Homo sapiens, UniProt Q9Y271); type: cell membranes, CHO-K1, Membrane; conditions: cho-k1; further: in other assays of this panel Not Active means under 50% inhibition at 10 µM
Sequence (Q9Y271 whole entry): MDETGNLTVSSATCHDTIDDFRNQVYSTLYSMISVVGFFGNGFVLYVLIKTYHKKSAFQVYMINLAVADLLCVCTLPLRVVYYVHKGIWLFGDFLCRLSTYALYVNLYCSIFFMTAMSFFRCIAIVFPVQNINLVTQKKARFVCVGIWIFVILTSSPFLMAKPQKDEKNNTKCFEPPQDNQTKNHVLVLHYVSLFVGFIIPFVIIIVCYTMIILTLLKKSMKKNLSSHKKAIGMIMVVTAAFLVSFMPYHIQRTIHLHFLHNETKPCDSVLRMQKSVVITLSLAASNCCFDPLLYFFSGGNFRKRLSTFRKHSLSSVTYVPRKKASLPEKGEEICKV
outcome_measure: IC50

{"columns": ["molecule", "tested_on", "obs_value"],
 "data": [
  ["CN1C(C(=O)Nc2ccccn2)=C(O)c2ccccc2S1(=O)=O", "Cysteinyl leukotriene receptor 1 (Homo sapiens, UniProt Q9Y271)", "Not Active"],
  ["O=C1NC(=O)C(c2ccccc2)(c2ccccc2)N1", "Cysteinyl leukotriene receptor 1 (Homo sapiens, UniProt Q9Y271)", "Not Active"],
  ["Nc1nnc(-c2cccc(Cl)c2Cl)c(N)n1", "Cysteinyl leukotriene receptor 1 (Homo sapiens, UniProt Q9Y271)", "Not Active"],
  ["Cc1ccccc1N1CCN(CCc2nnc3n2CCCC3)CC1", "Cysteinyl leukotriene receptor 1 (Homo sapiens, UniProt Q9Y271)", "Not Active"],
  ["Nc1ccc(S(N)(=O)=O)cc1 [SULFANILAMIDE]", "Cysteinyl leukotriene receptor 1 (Homo sapiens, UniProt Q9Y271)", "Not Active"],
  ["N=C(N)NCCCCNC(=N)N.O=S(=O)(O)O [ARCAINE SULFATE]", "Cysteinyl leukotriene receptor 1 (Homo sapiens, UniProt Q9Y271)", "Not Active"]
]}

For the molecule COc1cc(C(=O)NC2CCCNC2)cc(OC)c1OC (stereo not drawn) [TROXIPIDE] , what IC50 is on record? Not Active

Queued: O=C(CCCN1CCC(O)(c2ccc(Cl)cc2)CC1)c1ccc(F)cc1 Not Active

Queued: Clc1ccc(C(c2ccccc2Cl)C(Cl)Cl)cc1 (stereo not drawn) Not Active

Queued: COC1=CC(=O)C[C@@H](C)[C@]12Oc1c(Cl)c(OC)cc(OC)c1C2=O Not Active

Queued: Cc1c(-c2ccccc2)oc2c(C(=O)OCCN3CCCCC3)cccc2c1=O [FLAVOXATE] Not Active

Queued: C=C1CC[C@H](O)C/C1=C/C=C1\CCC[C@]2(C)[C@@H]([C@H](C)/C=C/[C@H](C)C(C)C)CC[C@@H]12 Not Active

Queued: Brc1ccccc1 Not Active

###

assay: DRUGMATRIX: Phorbol Ester radioligand binding (ligand: [3H] PDBu); assay type: cell membranes, Mus musculus, ICR, Brain, Membrane; conditions: Not Active = under 50% inhibition at 10 µM
Where a SMILES comes first, the peptide text is derived from it. Bridges are numbered along the chain shown (N, C = ends). [ ]: non-standard residue; d: D form. The star is where a group is joined. Ileψ(thiazoline)Cys = CC[C@H](C)[C@H](N)C1=N[C@H](C(=O)*)CS1; dOrn = NCCC[C@@H](N)C(=O)O

{"columns": ["molecule", "IC50"],
 "data": [
  ["CC[C@H](C)[C@H](N)C1=N[C@H](C(=O)N[C@@H](CC(C)C)C(=O)N[C@H](CCC(=O)O)C(=O)N[C@H](C(=O)N[C@H]2CCCCNC(=O)[C@H](CC(N)=O)NC(=O)[C@@H](CC(=O)O)NC(=O)[C@H](Cc3cnc[nH]3)NC(=O)[C@@H](Cc3ccccc3)NC(=O)[C@H]([C@@H](C)CC)NC(=O)[C@@H](CCCN)NC2=O)[C@@H](C)CC)CS1 [BACITRACIN] ({Ileψ(thiazoline)Cys}-L[dE]IK[dOrn]I[dF]H[dD]N; lactam 4-C)", "Not Active"],
  ["Nc1ccc(S(N)(=O)=O)cc1 [SULFANILAMIDE]", "Not Active"],
  ["CN1[C@@H]2CC[C@H]1C[C@@H](OC(=O)c1c[nH]c3ccccc13)C2 [TROPISETRON]", "Not Active"]
]}

Sourced from ChEMBL document CHEMBL1909046
